Ref: patent US20080044360A1

# ASSAY_SYSTEM: T1, rat collagen, acid soluble, type I, rat tail (Upstate 08-115) (rat, UniProt P02454 152-1207; P02466 86-1125)
# T1 construct: tissue extract, gelled and dried in wells; also called dried rat collagen
# T1 sequence (P02454 152-1207, chain 1 of 2): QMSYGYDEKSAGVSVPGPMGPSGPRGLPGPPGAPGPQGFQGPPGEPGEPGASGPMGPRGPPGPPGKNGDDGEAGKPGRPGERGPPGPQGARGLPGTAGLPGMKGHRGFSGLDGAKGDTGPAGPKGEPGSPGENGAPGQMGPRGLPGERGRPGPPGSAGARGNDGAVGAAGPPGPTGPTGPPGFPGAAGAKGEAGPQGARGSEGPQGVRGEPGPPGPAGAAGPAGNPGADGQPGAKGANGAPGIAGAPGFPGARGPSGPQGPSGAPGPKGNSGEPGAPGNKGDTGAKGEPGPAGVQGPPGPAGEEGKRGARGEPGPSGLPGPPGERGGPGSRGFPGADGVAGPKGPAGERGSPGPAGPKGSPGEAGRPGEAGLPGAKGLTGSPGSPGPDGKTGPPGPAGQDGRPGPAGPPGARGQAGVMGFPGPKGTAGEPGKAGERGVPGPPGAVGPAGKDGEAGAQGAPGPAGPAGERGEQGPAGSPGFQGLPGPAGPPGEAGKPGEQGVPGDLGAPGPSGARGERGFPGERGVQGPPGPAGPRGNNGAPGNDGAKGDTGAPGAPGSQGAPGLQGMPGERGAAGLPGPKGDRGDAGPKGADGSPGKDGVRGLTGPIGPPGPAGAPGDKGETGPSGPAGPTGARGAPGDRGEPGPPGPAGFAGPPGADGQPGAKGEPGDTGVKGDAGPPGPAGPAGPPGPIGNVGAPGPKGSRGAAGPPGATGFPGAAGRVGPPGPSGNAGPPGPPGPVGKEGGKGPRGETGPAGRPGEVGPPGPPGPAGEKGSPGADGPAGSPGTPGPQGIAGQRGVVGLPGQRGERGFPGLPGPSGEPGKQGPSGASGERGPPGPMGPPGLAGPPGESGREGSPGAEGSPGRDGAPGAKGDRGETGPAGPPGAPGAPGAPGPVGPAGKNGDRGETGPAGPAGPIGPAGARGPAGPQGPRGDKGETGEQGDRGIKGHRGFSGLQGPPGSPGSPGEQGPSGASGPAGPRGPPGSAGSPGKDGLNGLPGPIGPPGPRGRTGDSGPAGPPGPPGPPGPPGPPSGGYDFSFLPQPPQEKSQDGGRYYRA
# T1 sequence (P02466 86-1125, chain 2 of 2): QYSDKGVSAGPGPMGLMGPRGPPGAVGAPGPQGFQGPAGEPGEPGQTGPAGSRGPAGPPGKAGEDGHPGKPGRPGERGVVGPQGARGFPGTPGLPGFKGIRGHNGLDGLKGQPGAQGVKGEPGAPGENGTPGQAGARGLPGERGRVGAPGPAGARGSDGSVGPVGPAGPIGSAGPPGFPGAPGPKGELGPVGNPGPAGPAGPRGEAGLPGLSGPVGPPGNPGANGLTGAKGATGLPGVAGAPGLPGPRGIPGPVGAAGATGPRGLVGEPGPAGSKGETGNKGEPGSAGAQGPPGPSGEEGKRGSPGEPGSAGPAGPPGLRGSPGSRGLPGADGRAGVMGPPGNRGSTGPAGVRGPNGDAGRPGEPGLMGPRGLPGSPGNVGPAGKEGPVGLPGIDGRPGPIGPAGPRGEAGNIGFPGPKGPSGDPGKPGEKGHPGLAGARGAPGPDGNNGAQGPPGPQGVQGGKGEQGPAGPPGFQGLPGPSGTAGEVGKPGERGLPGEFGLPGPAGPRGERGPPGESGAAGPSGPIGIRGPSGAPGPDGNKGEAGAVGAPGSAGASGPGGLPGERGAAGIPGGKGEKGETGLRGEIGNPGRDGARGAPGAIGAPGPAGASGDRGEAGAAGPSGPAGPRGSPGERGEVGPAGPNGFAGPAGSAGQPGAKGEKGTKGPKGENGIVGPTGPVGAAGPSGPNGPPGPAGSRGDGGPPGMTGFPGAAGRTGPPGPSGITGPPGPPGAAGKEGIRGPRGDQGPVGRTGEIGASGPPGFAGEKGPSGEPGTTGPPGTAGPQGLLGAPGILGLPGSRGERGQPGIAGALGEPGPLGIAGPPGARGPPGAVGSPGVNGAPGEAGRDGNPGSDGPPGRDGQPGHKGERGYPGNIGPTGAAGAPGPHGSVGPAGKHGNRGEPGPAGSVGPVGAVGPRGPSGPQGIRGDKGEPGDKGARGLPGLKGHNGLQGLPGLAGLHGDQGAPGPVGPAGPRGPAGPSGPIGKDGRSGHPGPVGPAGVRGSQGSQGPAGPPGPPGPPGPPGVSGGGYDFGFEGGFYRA
# PROCEDURE_TEXT: dried collagen assay
Bridge positions count the residues as written; N and C are the ends. Square brackets hold non-standard residues; d marks the D form. Primed or numbered codes have the meaning given here. Side chains are listed from the residue outwards. Ends that are not written are not given here. Gd^T(3) = GdDTPA attached via thiourea; 1Nal = N[C@@H](Cc1cccc2ccccc12)C(=O)O; Gd^T = not defined here
Task for the reader: assign each of the following binders its reported % bound.
Record the value in %, omitting the unit from your answer.

Name the recorded % bound for {Gd^T}-GQWHCTTR[1Nal]PHHYCLYG (disulfide 5-14; not fully specified (C-terminus); reading uncertain) [Compound ID 860] .
45

And {Gd^T(3)}-GK([Gly-Gd^T(3)])WHCYTYFPHH[1Nal]CLYG (disulfide 5-14; not fully specified (C-terminus)) [Compound ID 992] ?
64
